System: c-Src;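 also: 11-residue human phosphosite peptides and single-mutation variants displayed on the E. coli surface, counted by deep sequencing, each peptide's frequency after selection divided by its frequency in the unselected input library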;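 also: frequency after pTyr selection over input frequency; kinase dosed for 20-30% of maximal phosphorylation in three min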
Run Description: phosphorylation enrichment, bacterial display (enrichment ratio); higher = better substrate or ligand; peptides without Tyr show the background
Consider the following sequences and their measured phosphorylation enrichment readings.
Measurement Label: phosphorylation enrichment

| Record Sequence | Tgt | Readout Number |
| --- | --- | --- |
| QTENKYDSVSG [EIF2AK3_Y565] | c-Src | 0.467 |
| VSLLPYFPAIM [IPO4_Y518_A513V] | c-Src | 0.443 |
| DTFDPYLDVAL [USP36_Y268_YF] | c-Src | 0.712 |
| PELINYHQPNS [BTK_Y361_H364P] | c-Src | 0.8 |
| EFENSYIFDIN [GAB1_Y83] | c-Src | 0.432 |
| GHNDVYISEHV [GRIN2A_Y1423] | c-Src | 0.395 |
| GGQVFYNSEFG [FLT4_Y1333_YF] | c-Src | 0.838 |
| NCFKYYMSDDI [ATRX_Y204] | c-Src | 0.811 |
| ANNPLYKEATS [ITGB3_Y773] | c-Src | 0.3 |
| DKTGEYPVPLT [ACADM_Y73_I78T] | c-Src | 0.448 |
| WDLPEYSYKDP [ITGA3_Y237_S235P] | c-Src | 0.495 |
| RAILDYIASKF [GSTA3_Y74_N73D_YF] | c-Src | 0.358 |
| HELYVYKSDEN [DOCK3_Y548_C550S] | c-Src | 0.917 |
| QELRRYLKSGV [MICA_Y194] | c-Src | 0.577 |
